Sourced from patent US20180057604A1

target: murine BACE1 ECD; assay: cell-based or functional assay; further: test concentration or dose not given here
Sequence (single chain, as listed by the source limits assumed): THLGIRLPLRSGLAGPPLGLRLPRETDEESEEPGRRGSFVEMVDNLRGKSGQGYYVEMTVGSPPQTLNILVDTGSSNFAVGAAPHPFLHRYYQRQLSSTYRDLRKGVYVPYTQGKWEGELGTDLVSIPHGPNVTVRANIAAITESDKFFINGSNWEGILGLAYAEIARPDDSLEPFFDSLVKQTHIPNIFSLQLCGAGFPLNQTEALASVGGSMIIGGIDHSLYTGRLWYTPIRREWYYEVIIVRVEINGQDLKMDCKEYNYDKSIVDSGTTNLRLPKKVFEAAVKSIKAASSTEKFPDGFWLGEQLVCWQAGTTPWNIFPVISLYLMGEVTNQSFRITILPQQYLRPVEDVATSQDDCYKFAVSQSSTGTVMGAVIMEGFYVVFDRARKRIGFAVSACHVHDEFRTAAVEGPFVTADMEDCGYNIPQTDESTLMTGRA
I'd appreciate it if you could supply % inhibition of BACE1 activity, short FRET substrate values for the items below.
Expressed in %, but write only the number.

Record request: % inhibition of BACE1 activity, short FRET substrate value, item 5571 (antibody, V domains shown, anti-BACE1 IgG) VH: QVQLVQSGAEVKKPGSSVKVSCKASGGTFSSYAISWVRQAPGQGLEWMGNIIPIFGTANYAQKFQGRVTITADESTSTAYMELSSLRSEDTAVYYCARSGGTKYGMLDVWGQGTVVTVSS VL: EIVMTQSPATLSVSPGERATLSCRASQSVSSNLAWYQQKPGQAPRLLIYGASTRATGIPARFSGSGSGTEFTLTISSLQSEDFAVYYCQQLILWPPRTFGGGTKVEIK
-175

Record request: % inhibition of BACE1 activity, short FRET substrate value, item 5891 (antibody, V domains shown, anti-BACE1 IgG) VH: QVQLVQSGAEVKKPGSSVKVSCKASGGTFSSYAISWVRQAPGQGLEWMGNIIPIFGPANYAQKFQGRVTITADESTSTAYMELSSLRSEDTAVYYCARSGGTKYGMLDVWGQGTMVTVSS VL: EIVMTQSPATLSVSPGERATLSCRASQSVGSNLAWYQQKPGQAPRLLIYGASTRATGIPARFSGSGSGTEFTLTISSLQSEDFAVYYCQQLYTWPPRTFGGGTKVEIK
70

Record request: % inhibition of BACE1 activity, short FRET substrate value, item 5897 (antibody, V domains shown, anti-BACE1 IgG) VH: QLQLQESGPGLVKPSETLSLTCTVSGGSISWSSYYWSWIRQPPGKGLEWIGSIYKSGRTYYNPSLKSRVTISVDTSKNQFSLKLSSVTAADTAVYYCARVGHGISYFDLWGRGTLVTVSS VL: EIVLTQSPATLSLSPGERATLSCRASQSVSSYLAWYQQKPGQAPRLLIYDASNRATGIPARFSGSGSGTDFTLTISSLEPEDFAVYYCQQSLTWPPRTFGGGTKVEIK
-3
